Reference source for all entries: patent US20250304537A1

# Target under test: recombinant human Myt1 (full length PKMYT1) (Homo sapiens (Human))
# Experiment: Recombinant human Myt1 kinase assay (ADP-Glo)
# Assay conditions: 10 μM ATP
Listing: IC50 of selected compounds
# answer = value followed by unit

>>> experimental_result("Cc1cccc(-c2cc(-c3c(C)ccc(O)c3C)c(N)c(C(N)=O)n2)n1 [Compound 83]")
"6 nM"
>>> experimental_result("Cc1ccc2[nH]ncc2c1-c1cc(-c2cccc(OCC(N)C(F)(F)F)n2)nc(C(N)=O)c1N (stereo not shown)")
"7 nM"
>>> experimental_result("Cc1ccc(O)cc1-c1nc(-c2cc(F)cc(C(F)(F)F)c2)nc(C(N)=O)c1N")
"175 nM"
>>> experimental_result("Cc1ccnc(Nc2cc(F)ccc2-c2nc(C(N)=O)c(N)c(-c3c(C)ccc4[nH]ncc34)n2)c1")
"11 nM"

Inquiry: Supply measured IC50 of `Cc1ccc2[nH]ncc2c1-c1nc(-c2cn(C)nc2NC2CCCC2)nc(C(N)=O)c1N` in your reply.
Reply text: 6 nM

Inquiry: Supply measured IC50 of `Cc1ccc2[nH]ncc2c1-c1nc(-c2ccccc2NC2CC2)nc(C(N)=O)c1N` in your reply.
Reply text: 3 nM

---

Listing: IC50 of selected compounds
# Target under test: recombinant human Myt1 (full length PKMYT1) (Homo sapiens (Human), UniProt Q99640)
# Sequence (Q99640 whole entry): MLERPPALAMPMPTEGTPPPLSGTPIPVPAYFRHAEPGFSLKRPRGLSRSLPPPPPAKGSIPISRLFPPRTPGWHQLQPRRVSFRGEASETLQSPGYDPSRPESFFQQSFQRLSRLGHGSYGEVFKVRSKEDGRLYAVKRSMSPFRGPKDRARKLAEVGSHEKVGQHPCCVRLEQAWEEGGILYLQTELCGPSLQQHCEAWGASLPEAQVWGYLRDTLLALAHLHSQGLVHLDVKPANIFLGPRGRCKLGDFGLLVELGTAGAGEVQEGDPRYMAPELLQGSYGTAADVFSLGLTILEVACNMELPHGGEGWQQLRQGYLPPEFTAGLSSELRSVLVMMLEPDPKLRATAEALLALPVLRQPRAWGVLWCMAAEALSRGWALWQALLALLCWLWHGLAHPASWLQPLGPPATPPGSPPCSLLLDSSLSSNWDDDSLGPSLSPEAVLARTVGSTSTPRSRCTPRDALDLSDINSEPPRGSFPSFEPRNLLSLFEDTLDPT
# Experiment: Recombinant human Myt1 kinase assay (ADP-Glo)
# Assay conditions: 10 μM ATP

Below, each entry is followed by its recorded IC50 result.
>>> experimental_result("NC(=O)c1nc(-c2ccccn2)cc(-c2cccc3[nH]ncc23)c1N [Compound 70]")
"29 nM"
>>> experimental_result("Cc1ccc2[nH]ncc2c1-c1cc(-c2ccnc(N3CC[C@H](O)C3)n2)nc(C(N)=O)c1N [Compound 348]")
"15 nM"
>>> experimental_result("Cc1ccc2[nH]ncc2c1-c1cc(-c2ccnc(N[C@@H](CO)c3ccccc3)n2)nc(C(N)=O)c1N (atropisomer, axis not shown) [Compound 362]")
"2 nM"
>>> experimental_result("Cc1ccc(O)c(C)c1-c1cc(-c2ccco2)nc(C(N)=O)c1N [Compound 50]")
"6 nM"
>>> experimental_result("Cc1ccc2[nH]ncc2c1-c1nc(-c2ccccc2N[C@@H](C)C(F)(F)F)nc(C(N)=O)c1N [Compound 429]")
"4 nM"

Below: the item to evaluate.
Inquiry: Supply measured IC50 of Cc1ccc2[nH]ncc2c1-c1cc(-c2ccnc(OCCc3nccn3C)n2)nc(C(N)=O)c1N [Compound 264] in your reply.
Reply text: 9 nM

---

# Target under test: recombinant human Myt1 (full length PKMYT1) (Homo sapiens (Human), UniProt Q99640)
# Experiment: Recombinant human Myt1 kinase assay (ADP-Glo)
# Assay conditions: 10 μM ATP
Listing: pIC50 of selected molecules
Lab note — pIC50 values are minus log10 of concentrations in M.

>>> experimental_result("Cc1ccc(O)c(C)c1-c1cc(-c2cncnc2)nc(C(N)=O)c1N")
8.05
>>> experimental_result("Cc1ccc2[nH]ncc2c1-c1cc(-c2ccnc(OCc3cccnc3)n2)nc(C(N)=O)c1N")
7.85

Inquiry: Supply measured pIC50 of Cc1ccc2[nH]ncc2c1-c1cc(-c2cccc(OCc3ncco3)n2)nc(C(N)=O)c1N (atropisomer, axis not shown) [Compound 273] in your reply.
Reply text: 6.15

Inquiry: Supply measured pIC50 of `Cc1ccc(O)cc1-c1nc(-c2ccn(C)c(=O)c2)nc(C(N)=O)c1N` in your reply.
Reply text: 7.04

Inquiry: Supply measured pIC50 of `Cc1ccc2[nH]ncc2c1-c1nc(-c2ccccc2NC(=O)[C@]2(C)CCCN2)nc(C(N)=O)c1N` in your reply.
Reply text: 7.72

Inquiry: Supply measured pIC50 of `Cc1ccc2[nH]ncc2c1-c1cc(-c2ccnc(OCCN(C)C(=O)OC(C)(C)C)n2)nc(C(N)=O)c1N` in your reply.
Reply text: 7.14

Inquiry: Supply measured pIC50 of `Cc1ccc2[nH]ncc2c1-c1nc(-c2cccc3c2NCCO3)nc(C(N)=O)c1N` in your reply.
Reply text: 7.77

Inquiry: Supply measured pIC50 of Cc1ccc(O)c(C)c1-c1cc(-c2ccnnc2)cc(C(N)=O)c1N [Compound 149] in your reply.
Reply text: 6.13

---

# Target under test: recombinant human Myt1 (full length PKMYT1) (Homo sapiens (Human), UniProt Q99640)
# Experiment: Recombinant human Myt1 kinase assay (ADP-Glo)
# Assay conditions: 10 μM ATP
Readout: pIC50
Lab note — pIC50 values are minus log10 of concentrations in M.

Inquiry: Supply measured pIC50 of Cc1ccc(O)c(C)c1-c1cc(-c2cncs2)nc(C(N)=O)c1N [Compound 82] in your reply.
Reply text: 8.15

Inquiry: Supply measured pIC50 of `Cc1ccc2[nH]ncc2c1-c1nc(-c2cn(C)nc2NC2CC(F)(F)C2)nc(C(N)=O)c1N` in your reply.
Reply text: 8.40

Inquiry: Supply measured pIC50 of Cc1ccc2[nH]ncc2c1-c1nc(-c2ccccc2C(C)O)nc(C(N)=O)c1N (stereo not shown) in your reply.
Reply text: 8.40

Inquiry: Supply measured pIC50 of Cc1ccc2[nH]ncc2c1-c1cc(-c2ccnc(N[C@H]3c4ccccc4C[C@H]3O)n2)nc(C(N)=O)c1N (atropisomer, axis not shown) in your reply.
Reply text: 7.82

Inquiry: Supply measured pIC50 of Cc1ccc2[nH]ncc2c1-c1cc(-c2cccc(OC(C)c3ccccn3)n2)nc(C(N)=O)c1N (stereo not shown) in your reply.
Reply text: 7.59

Inquiry: Supply measured pIC50 of `Cc1ccc2[nH]ncc2c1-c1cc(-c2ccnc(Sc3ccccc3)n2)nc(C(N)=O)c1N` in your reply.
Reply text: 7.89

Inquiry: Supply measured pIC50 of `Cc1ccc2[nH]ncc2c1-c1cc(-c2cccc(OCc3ccncn3)n2)nc(C(N)=O)c1N` in your reply.
Reply text: 7.96

---

# Target under test: recombinant human Myt1 (full length PKMYT1) (Homo sapiens (Human), UniProt Q99640)
# Experiment: Recombinant human Myt1 kinase assay (ADP-Glo)
# Assay conditions: 10 μM ATP
pIC50: −log10 of the molar value.
Please note: Fulfilled applies when pIC50 is 8 or greater, and Not fulfilled applies otherwise.

Inquiry: Is reported pIC50 greater than or equal to 8 here: `Cc1ccc2[nH]ncc2c1-c1nc(-c2cccnc2NC[C@H]2CCCO2)nc(C(N)=O)c1N`
Reply text: Fulfilled

Inquiry: Is reported pIC50 greater than or equal to 8 here: `Cc1c(-c2ccccn2)nc(C(N)=O)c(N)c1-c1cccc2[nH]ncc12`
Reply text: Not fulfilled

Inquiry: Is reported pIC50 greater than or equal to 8 here: `Cc1ccc2[nH]ncc2c1-c1nc(-c2cccc3nc[nH]c23)nc(C(N)=O)c1N`
Reply text: Not fulfilled

Inquiry: Is reported pIC50 greater than or equal to 8 here: `Cc1ccc2[nH]ncc2c1-c1nc(-c2ccccc2NC(=O)C(C)(C)C)nc(C(N)=O)c1N`
Reply text: Fulfilled

Inquiry: Is reported pIC50 greater than or equal to 8 here: `Cc1ccc2[nH]ncc2c1-c1cc(-c2ccccn2)cc(C(N)=O)c1N`
Reply text: Not fulfilled

Inquiry: Is reported pIC50 greater than or equal to 8 here: `CC(C)(C)C(=O)Nc1ccccc1-c1nc(C(N)=O)c(N)c(-c2c(Cl)ccc3[nH]ncc23)n1`
Reply text: Fulfilled

---

Listing: pIC50 of selected compounds
# Target under test: recombinant human Myt1 (full length PKMYT1) (Homo sapiens (Human), UniProt Q99640)
# Experiment: Recombinant human Myt1 kinase assay (ADP-Glo)
# Assay conditions: 10 μM ATP
Lab note — pIC50 values are minus log10 of concentrations in M.

>>> experimental_result("COCCNc1nccc(-c2cc(-c3c(C)ccc4[nH]ncc34)c(N)c(C(N)=O)n2)n1")
8.30
>>> experimental_result("Cc1ccc2[nH]ncc2c1-c1cc(-c2ncccn2)nc(C(N)=O)c1N")
7.25
>>> experimental_result("Cc1ccc2[nH]ncc2c1-c1nc(-c2cccnc2Nc2cccc(F)c2)nc(C(N)=O)c1N")
8.00

Inquiry: Output reported pIC50 of the compound `Cc1ccc2[nH]ncc2c1-c1nc(-c2cc(C(F)(F)F)ccc2NC(=O)C2(C)CC2)nc(C(N)=O)c1N` on recombinant human Myt1 (full length PKMYT1) (Homo sapiens (Human), UniProt Q99640).
Reply text: 7.42

---

# Target under test: recombinant human Myt1 (full length PKMYT1) (Homo sapiens (Human), UniProt Q99640)
# Experiment: Recombinant human Myt1 kinase assay (ADP-Glo)
# Assay conditions: 10 μM ATP
Listing: log10(IC50) of selected compounds
Hello, just confirming the data are log10 of IC50 with units of nM.

Below, each entry is followed by its recorded log10(IC50) result.
>>> experimental_result("Cc1ccc2[nH]ncc2c1-c1nc(-c2cn(C)nc2NC2CCOCC2)nc(C(N)=O)c1N [Compound 845]")
0.60
>>> experimental_result("Cc1ccc2[nH]ncc2c1-c1nc(-c2ccccc2NC(C)(C)C)nc(C(N)=O)c1N [Compound 451]")
0.85
>>> experimental_result("Cc1ccc2[nH]ncc2c1-c1nc(-c2ccccc2NC(=O)C2CC(C)(C)C2)nc(C(N)=O)c1N [Compound 417]")
1.26
>>> experimental_result("CNc1cccc(-c2nc(C(N)=O)c(N)c(-c3c(C)ccc4[nH]ncc34)n2)c1 [Compound 140]")
1.68
>>> experimental_result("Cc1ccc2[nH]ncc2c1-c1nc(-c2ccc(C(=O)O)cc2)nc(C(N)=O)c1N [Compound 146]")
1.36

Inquiry: Supply measured log10(IC50) of Cc1ccc2[nH]ncc2c1-c1nc(-c2ccc(F)cc2Nc2ccnc(C#N)c2)nc(C(N)=O)c1N [Compound 620] in your reply.
Reply text: 0.48

Inquiry: Supply measured log10(IC50) of Cc1ccc2[nH]ncc2c1-c1cc(-c2ccc(=O)[nH]c2)nc(C(N)=O)c1N [Compound 178] in your reply.
Reply text: 1.83

Inquiry: Supply measured log10(IC50) of Cc1ccc2[nH]ncc2c1-c1nc(-c2cccc(CNc3ncccn3)c2)nc(C(N)=O)c1N [Compound 295] in your reply.
Reply text: 1.43

Inquiry: Supply measured log10(IC50) of Cc1ccc(O)c(C)c1-c1cc(-c2cnccn2)nc(C(N)=O)c1N [Compound 26] in your reply.
Reply text: 0.48
